assay: Biodistribution 180 minutes after the injection; type: in vivo; conditions: rabbit, lung, iv, total radioactivity, Control rabbits (n = 3), read-out: Biodistribution, Lung
Where a SMILES comes first, the peptide text is derived from it. [ ]: non-standard residue; d: D form. Tyr(3-I) = N[C@@H](Cc1ccc(O)c(I)c1)C(=O)O
Quantity: tissue uptake at 3 h (%ID/g)
State just the number; it will be interpreted in %ID/g.

Sample CC[C@H](C)[C@H](NC(=O)[C@H](C)NC(=O)[C@H](CC(C)C)NC(=O)[C@H](CCCNC(=N)N)NC(=O)[C@@H](N)Cc1ccc(O)c(I)c1)C(=O)N[C@@H](CCCNC(=N)N)C(=O)N[C@@H](CC(C)C)C(=O)N[C@@H](CC(N)=O)C(=O)N[C@@H](CCC(=O)O)C(=O)N[C@@H](CCCNC(=N)N)C(=O)O [^123I-B2702.84-75] (H-[Tyr(3-I)]RLAIRLNER-OH; N-terminus and C-terminus assumed) — what was its tissue uptake at 3 h?
0.138

* * *

test: Biodistribution 180 minutes after the injection; assay type: in vivo; details: rabbit, blood, iv, total radioactivity, WHHL rabbits (n = 3), read-out: Biodistribution, Blood
Where a SMILES comes first, the peptide text is derived from it. [ ]: non-standard residue; d: D form. Tyr(3-I) = N[C@@H](Cc1ccc(O)c(I)c1)C(=O)O
Quantity: tissue uptake at 3 h (%ID/g)
State just the number; it will be interpreted in %ID/g.

Sample CC[C@H](C)[C@H](NC(=O)[C@H](C)NC(=O)[C@H](CC(C)C)NC(=O)[C@H](CCCNC(=N)N)NC(=O)[C@@H](N)Cc1ccc(O)c(I)c1)C(=O)N[C@@H](CCCNC(=N)N)C(=O)N[C@@H](CC(C)C)C(=O)N[C@@H](CC(N)=O)C(=O)N[C@@H](CCC(=O)O)C(=O)N[C@@H](CCCNC(=N)N)C(=O)O [^123I-B2702.84-75] (H-[Tyr(3-I)]RLAIRLNER-OH; N-terminus and C-terminus assumed) — what was its tissue uptake at 3 h?
0.161

* * *

test: Biodistribution 180 minutes after the injection; assay type: in vivo; details: rabbit, stomach, iv, total radioactivity, WHHL rabbits (n = 3), read-out: Biodistribution, Stomach
Where a SMILES comes first, the peptide text is derived from it. [ ]: non-standard residue; d: D form. Tyr(3-I) = N[C@@H](Cc1ccc(O)c(I)c1)C(=O)O
Quantity: tissue uptake at 3 h (%ID/g)
State just the number; it will be interpreted in %ID/g.

Sample CC[C@H](C)[C@H](NC(=O)[C@H](C)NC(=O)[C@H](CC(C)C)NC(=O)[C@H](CCCNC(=N)N)NC(=O)[C@@H](N)Cc1ccc(O)c(I)c1)C(=O)N[C@@H](CCCNC(=N)N)C(=O)N[C@@H](CC(C)C)C(=O)N[C@@H](CC(N)=O)C(=O)N[C@@H](CCC(=O)O)C(=O)N[C@@H](CCCNC(=N)N)C(=O)O [^123I-B2702.84-75] (H-[Tyr(3-I)]RLAIRLNER-OH; N-terminus and C-terminus assumed) — what was its tissue uptake at 3 h?
0.114

* * *

test: Biodistribution 180 minutes after the injection; assay type: in vivo; conditions: rabbit, spleen, iv, total radioactivity, Control rabbits (n = 3), read-out: Biodistribution, Spleen
Where a SMILES comes first, the peptide text is derived from it. [ ]: non-standard residue; d: D form. Tyr(3-I) = N[C@@H](Cc1ccc(O)c(I)c1)C(=O)O
Quantity: tissue uptake at 3 h (%ID/g)
State just the number; it will be interpreted in %ID/g.

Sample CC[C@H](C)[C@H](NC(=O)[C@H](C)NC(=O)[C@H](CC(C)C)NC(=O)[C@H](CCCNC(=N)N)NC(=O)[C@@H](N)Cc1ccc(O)c(I)c1)C(=O)N[C@@H](CCCNC(=N)N)C(=O)N[C@@H](CC(C)C)C(=O)N[C@@H](CC(N)=O)C(=O)N[C@@H](CCC(=O)O)C(=O)N[C@@H](CCCNC(=N)N)C(=O)O [^123I-B2702.84-75] (H-[Tyr(3-I)]RLAIRLNER-OH; N-terminus and C-terminus assumed) — what was its tissue uptake at 3 h?
0.076

* * *

assay: Biodistribution 180 minutes after the injection; type: in vivo; conditions: rabbit, muscle, iv, total radioactivity, WHHL rabbits (n = 3), read-out: Biodistribution, Muscle
Where a SMILES comes first, the peptide text is derived from it. [ ]: non-standard residue; d: D form. Tyr(3-I) = N[C@@H](Cc1ccc(O)c(I)c1)C(=O)O
Quantity: tissue uptake at 3 h (%ID/g)
State just the number; it will be interpreted in %ID/g.

Sample CC[C@H](C)[C@H](NC(=O)[C@H](C)NC(=O)[C@H](CC(C)C)NC(=O)[C@H](CCCNC(=N)N)NC(=O)[C@@H](N)Cc1ccc(O)c(I)c1)C(=O)N[C@@H](CCCNC(=N)N)C(=O)N[C@@H](CC(C)C)C(=O)N[C@@H](CC(N)=O)C(=O)N[C@@H](CCC(=O)O)C(=O)N[C@@H](CCCNC(=N)N)C(=O)O [^123I-B2702.84-75] (H-[Tyr(3-I)]RLAIRLNER-OH; N-terminus and C-terminus assumed) — what was its tissue uptake at 3 h?
0.026

* * *

experiment: Biodistribution 180 minutes after the injection; assay type: in vivo; conditions: rabbit, kidney, iv, total radioactivity, WHHL rabbits (n = 3), read-out: Biodistribution, Kidney
Where a SMILES comes first, the peptide text is derived from it. [ ]: non-standard residue; d: D form. Tyr(3-I) = N[C@@H](Cc1ccc(O)c(I)c1)C(=O)O
Quantity: tissue uptake at 3 h (%ID/g)
State just the number; it will be interpreted in %ID/g.

Sample CC[C@H](C)[C@H](NC(=O)[C@H](C)NC(=O)[C@H](CC(C)C)NC(=O)[C@H](CCCNC(=N)N)NC(=O)[C@@H](N)Cc1ccc(O)c(I)c1)C(=O)N[C@@H](CCCNC(=N)N)C(=O)N[C@@H](CC(C)C)C(=O)N[C@@H](CC(N)=O)C(=O)N[C@@H](CCC(=O)O)C(=O)N[C@@H](CCCNC(=N)N)C(=O)O [^123I-B2702.84-75] (H-[Tyr(3-I)]RLAIRLNER-OH; N-terminus and C-terminus assumed) — what was its tissue uptake at 3 h?
0.49

* * *

experiment: Biodistribution 180 minutes after the injection; assay type: in vivo; conditions: rabbit, heart, iv, total radioactivity, Control rabbits (n = 3), read-out: Biodistribution, Heart
Where a SMILES comes first, the peptide text is derived from it. [ ]: non-standard residue; d: D form. Tyr(3-I) = N[C@@H](Cc1ccc(O)c(I)c1)C(=O)O
Quantity: tissue uptake at 3 h

Sample CC[C@H](C)[C@H](NC(=O)[C@H](C)NC(=O)[C@H](CC(C)C)NC(=O)[C@H](CCCNC(=N)N)NC(=O)[C@@H](N)Cc1ccc(O)c(I)c1)C(=O)N[C@@H](CCCNC(=N)N)C(=O)N[C@@H](CC(C)C)C(=O)N[C@@H](CC(N)=O)C(=O)N[C@@H](CCC(=O)O)C(=O)N[C@@H](CCCNC(=N)N)C(=O)O [^123I-B2702.84-75] (H-[Tyr(3-I)]RLAIRLNER-OH; N-terminus and C-terminus assumed) — what was its tissue uptake at 3 h?
0.088 %ID/g

* * *

test: Biodistribution 180 minutes after the injection; assay type: in vivo; settings: rabbit, lung, iv, total radioactivity, WHHL rabbits (n = 3), read-out: Biodistribution, Lung
Where a SMILES comes first, the peptide text is derived from it. [ ]: non-standard residue; d: D form. Tyr(3-I) = N[C@@H](Cc1ccc(O)c(I)c1)C(=O)O
Quantity: tissue uptake at 3 h (%ID/g)
State just the number; it will be interpreted in %ID/g.

Sample CC[C@H](C)[C@H](NC(=O)[C@H](C)NC(=O)[C@H](CC(C)C)NC(=O)[C@H](CCCNC(=N)N)NC(=O)[C@@H](N)Cc1ccc(O)c(I)c1)C(=O)N[C@@H](CCCNC(=N)N)C(=O)N[C@@H](CC(C)C)C(=O)N[C@@H](CC(N)=O)C(=O)N[C@@H](CCC(=O)O)C(=O)N[C@@H](CCCNC(=N)N)C(=O)O [^123I-B2702.84-75] (H-[Tyr(3-I)]RLAIRLNER-OH; N-terminus and C-terminus assumed) — what was its tissue uptake at 3 h?
0.163

* * *

experiment: Biodistribution 180 minutes after the injection; format: in vivo; conditions: rabbit, fat, iv, total radioactivity, WHHL rabbits (n = 3), read-out: Biodistribution, Fat
Where a SMILES comes first, the peptide text is derived from it. [ ]: non-standard residue; d: D form. Tyr(3-I) = N[C@@H](Cc1ccc(O)c(I)c1)C(=O)O
Quantity: tissue uptake at 3 h
Answer with the figure and its unit, nothing else.

Sample CC[C@H](C)[C@H](NC(=O)[C@H](C)NC(=O)[C@H](CC(C)C)NC(=O)[C@H](CCCNC(=N)N)NC(=O)[C@@H](N)Cc1ccc(O)c(I)c1)C(=O)N[C@@H](CCCNC(=N)N)C(=O)N[C@@H](CC(C)C)C(=O)N[C@@H](CC(N)=O)C(=O)N[C@@H](CCC(=O)O)C(=O)N[C@@H](CCCNC(=N)N)C(=O)O [^123I-B2702.84-75] (H-[Tyr(3-I)]RLAIRLNER-OH; N-terminus and C-terminus assumed) — what was its tissue uptake at 3 h?
0.015 %ID/g
